target: CIB1 and αIIb interaction (CIB1-GST : F-αIIb peptide) (Homo sapiens); construct: made in house; host or cells: BL-21 plus RIL cells (E. coli); test: FP assay, 1536-well qHTS format (primary and confirmatory screen); format: binding; details: confirmatory screen, qHTS curve class; negative sign = inhibitory curve
measured_parameter: CONFIRMATORY SCREEN Curve Class
Lab note: record just the number, no unit beside it.

Answered cases to consult:
CCOC(=O)N1CCN([N+]([O-])=NOc2ccc([N+](=O)[O-])cc2[N+](=O)[O-])CC1 | -1.2
CCc1oc2ccccc2c1C(=O)c1cc(Br)c(O)c(Br)c1 | -1.2
Nc1c(Cc2ccc(S(N)(=O)=O)cc2)c(-c2cccc(-c3ccccc3)c2)nn1-c1nc(C(=O)O)cs1.O=C(O)C(F)(F)F | -2.2
Cc1ccc(-c2csc(NC(=O)c3ccncc3NS(=O)(=O)c3ccc(C)cc3)n2)cc1.O=C(O)C(F)(F)F | -1.2

Recorded CONFIRMATORY SCREEN Curve Class (molecule O=C(O)C(F)(F)F.OCc1ccc(-c2ccc3ncnc(NCc4cccs4)c3c2)o1 ): -1.2

Recorded CONFIRMATORY SCREEN Curve Class (molecule N#Cc1cnc(NS(=O)(=O)c2ccc(NC(=O)Cc3ccc(F)c(Cl)c3)cc2)s1.O=C(O)C(F)(F)F ): -1.4

Recorded CONFIRMATORY SCREEN Curve Class (molecule Cc1cc(SCc2sc(-c3ccc(Cl)c(Cl)c3)nc2C)ccc1OCc1nnn[nH]1.O=C(O)C(F)(F)F ): -1.2

Recorded CONFIRMATORY SCREEN Curve Class (molecule COc1cccc(-n2c(SCc3cc(=O)oc4cc(O)c(O)cc34)nc3ccccc3c2=O)c1.O=C(O)C(F)(F)F ): -1.1

Recorded CONFIRMATORY SCREEN Curve Class (molecule O=c1sc2ccccc2c(O)c1C1CC(c2ccc(-c3ccc(Br)cc3)cc2)Cc2ccccc21 (stereo not drawn) ): -1.4

Recorded CONFIRMATORY SCREEN Curve Class (molecule Cc1ccc(Cl)cc1NC(=O)c1nc[nH]c1C(=O)Nc1nc2ccccc2[nH]1 ): -1.2

Recorded CONFIRMATORY SCREEN Curve Class (molecule Cc1cc(S(=O)(=O)Nc2cnccc2C(=O)Nc2nc(-c3ccccc3)cs2)c(C)o1.O=C(O)C(F)(F)F ): -1.1

Recorded CONFIRMATORY SCREEN Curve Class (molecule COc1cc(/C=C2/N=C(c3ccccc3)OC2=O)c(F)cc1OCc1ccccc1 ): -2.2

Recorded CONFIRMATORY SCREEN Curve Class (molecule Cc1ccc(S(=O)(=O)Nc2nn3c(=O)c4ccccc4nc3s2)cc1C.O=C(O)C(F)(F)F ): -2.2

Recorded CONFIRMATORY SCREEN Curve Class (molecule Oc1c(Cl)cc(Cl)c(Cl)c1Cc1c(O)c(Cl)cc(Cl)c1Cl ): -1.4

Recorded CONFIRMATORY SCREEN Curve Class (molecule O=C(O)C(F)(F)F.O=C(O)c1ccc(-c2ccc3ncnc(NCc4nccs4)c3c2)o1 ): -2.4

----------
Recorded pIC50 by entry
molecular target: CIB1 and αIIb interaction (CIB1-GST : F-αIIb peptide) (Homo sapiens, UniProt Q99828); construct: made in house; host or cells: BL-21 plus RIL cells (E. coli); assay: FP assay, 1536-well qHTS format (primary and confirmatory screen); type: binding; details: qHTS primary screen hits, Table S2; read-out: IC50
Sequence (Q99828 whole entry): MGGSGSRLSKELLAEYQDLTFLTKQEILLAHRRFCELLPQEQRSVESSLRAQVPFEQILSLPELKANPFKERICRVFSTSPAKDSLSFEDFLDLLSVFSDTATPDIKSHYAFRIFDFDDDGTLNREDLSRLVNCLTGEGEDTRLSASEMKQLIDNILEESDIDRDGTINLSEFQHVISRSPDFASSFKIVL
Notebook: values listed as pIC50 are -log10 of the concentration (mol/L).

O=C(O)C(F)(F)F.O=C(c1cnc(N2CCCCC2)c2ccccc12)N1CCN(c2ccccc2)CC1 [NCGC00262736-01] | 4.50
O=C(O)C(F)(F)F.O=C1CC(c2ccccc2Cl)c2sc(N3CCOCC3)nc2N1 (stereo not drawn) [NCGC00488256-02] | 4.10
O=C(O)C(F)(F)F.O=C(O)c1ccc(Cc2c(-c3cccc(-c4ccccc4)c3)nn(-c3nc(C(=O)O)cs3)c2O)cc1 [NCGC00356639-01] | 4.40
Cc1ccc(S(=O)(=O)Nc2cnccc2C(=O)Nc2nc3ccccc3s2)cc1.O=C(O)C(F)(F)F [NCGC00343897-01] | 4.50
O=C(O)C(F)(F)F.Oc1cc(NCCN2CCOCC2)cc2cccnc12 [NCGC00183799-01] | 4.30

Recorded pIC50 (molecule Cc1cc(Nc2c(Nc3nnc(-c4ccncc4)s3)c(=O)c2=O)ccc1Cl.O=C(O)C(F)(F)F [NCGC00241510-01] ): 4.40

Recorded pIC50 (molecule NS(=O)(=O)c1ccc(Cc2c(-c3ccc(F)c(-c4cccs4)c3)nn(-c3nc(C(=O)O)cs3)c2CC2CC2)cc1F.O=C(O)C(F)(F)F [NCGC00390071-01] ): 4.30

Recorded pIC50 (molecule Cc1ccc(-n2nc(C(C)(C)C)cc2NC(=O)Nc2ccc(OCCN3CCOCC3)c3ccccc23)cc1 [NCGC00241104-02] ): 4.35

Recorded pIC50 (molecule O=C(Nc1ccc2ccccc2c1)Nc1nnc(-c2ccccn2)s1.O=C(O)C(F)(F)F [NCGC00188528-01] ): 4.25
